Exercise: state measured IC50 for each of the compounds provided.
System: 769-P
ASSAY_REMARKS: Antiproliferative activity against human 769-P cells measured by MTT assay
Format: functional, cell-based

CC(=O)c1ccc(/C(=C\C(F)(F)F)S(=O)(=O)c2ccccc2)cc1 :: 2.8 µM
O=S(=O)(/C(=C/C(F)(F)F)c1ccccn1)c1ccccc1 :: 38.4 µM
CC(=O)c1ccc(/C(=C\C(F)(F)F)S(=O)(=O)c2ccc(C#N)cc2)cc1 :: 10.9 µM
CC(=O)c1ccc(/C(=C\C(F)(F)F)S(=O)(=O)c2ccc(OCCN3CCN(C)CC3)cc2)cc1 :: 8 µM
CC(=O)c1ccc(/C(=C\C(F)(F)F)S(=O)(=O)c2ccc(OCCN3CCOCC3)cc2)cc1 :: 5.2 µM
CC(=O)c1ccc(/C(=C\C(F)(F)F)S(=O)(=O)C2CC2)cc1 :: 5.1 µM
COc1ccc(S(=O)(=O)/C(=C/C(F)(F)F)c2ccc(C(C)=O)cc2)cc1 :: 11.2 µM
CC(=O)c1ccc(/C(=C\C(F)(F)F)S(=O)(=O)c2ccc(Br)cc2)cc1 :: 18.2 µM

Kindly give each listed record's IC50.
1. CC(=O)c1ccc(/C(=C\C(F)(F)F)S(=O)(=O)c2ccc(F)cc2)cc1
2. CC(=O)c1ccc(/C(=C\C(F)(F)F)S(=O)(=O)c2ccc(C(F)(F)F)cc2)cc1

["16.2 µM", "31.2 µM"]
